Give IC50 for every item shown.
TESTED ON: DDR1 (Homo sapiens)
Sequence (Q08345 610-905 limits assumed): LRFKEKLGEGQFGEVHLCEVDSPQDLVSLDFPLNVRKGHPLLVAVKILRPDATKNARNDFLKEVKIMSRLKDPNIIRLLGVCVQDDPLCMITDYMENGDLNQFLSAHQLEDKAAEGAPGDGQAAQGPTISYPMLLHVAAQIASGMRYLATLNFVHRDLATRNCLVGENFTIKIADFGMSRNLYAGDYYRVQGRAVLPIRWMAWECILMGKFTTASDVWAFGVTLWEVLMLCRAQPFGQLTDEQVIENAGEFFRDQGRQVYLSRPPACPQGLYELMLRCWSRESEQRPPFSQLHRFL
One number for each entry, in nM.

These solved cases illustrate the format of a correct answer.
1) COc1cnc(Nc2cccc(S(N)(=O)=O)c2)nc1-c1sc2nccc(=O)n2c1-c1ccccc1 ... 6880
2) CC(C)c1c(-c2ccnc(Nc3cccc(N4CCN(CCO)CC4)c3)n2)sc2nccc(=O)n12 ... 15.3

I need IC50 for every entry listed below, if you could help.
1. NS(=O)(=O)c1cccc(Nc2nccc(-c3sc4nccc(=O)n4c3-c3cccc(Cl)c3Cl)n2)c1
2. CN1CCN(c2ccc(Nc3nccc(-c4sc5nccc(=O)n5c4-c4ccccc4O)n3)cc2)CC1
3. CCc1c(C)nc2sc(-c3ccnc(Nc4cccc(N5CCN(CCO)CC5)c4)n3)c(-c3ccccc3)n2c1=O
4. NS(=O)(=O)c1cccc(Nc2nccc(-c3sc4nccc(=O)n4c3-c3ccccc3)n2)c1
5. CCOC(=O)c1cnc2sc(-c3ccnc(Nc4cccc(N5CCN(CCO)CC5)c4)n3)c(-c3ccccc3)n2c1=O

Resp:
[10.2, 2.28, 25.5, 13.9, 147]
